Assay: self-splicing fitness, log relative to wild type (ln ratio); higher = more splicing; Tetrahymena group I intron in knt gene, E. coli kanamycin selection, DiMSum; sequences stand for … in CUCUCU…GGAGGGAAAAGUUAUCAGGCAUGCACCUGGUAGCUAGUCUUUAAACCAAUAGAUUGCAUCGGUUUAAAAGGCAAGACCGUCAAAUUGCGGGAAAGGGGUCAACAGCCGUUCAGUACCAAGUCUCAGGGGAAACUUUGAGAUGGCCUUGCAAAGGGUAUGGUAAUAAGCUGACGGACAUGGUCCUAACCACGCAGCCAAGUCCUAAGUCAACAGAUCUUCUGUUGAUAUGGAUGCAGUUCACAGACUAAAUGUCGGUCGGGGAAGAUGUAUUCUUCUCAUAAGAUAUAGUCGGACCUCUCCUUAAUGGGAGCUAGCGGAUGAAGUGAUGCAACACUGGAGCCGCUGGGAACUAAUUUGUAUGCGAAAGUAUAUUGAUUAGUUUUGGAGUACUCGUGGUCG;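 note: selection with 25 µg/mL kanamycin versus none on LB agar overnight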
Details: 30 °C
Answer condition not met if self-splicing fitness (ln) is under -3, and condition met if it is -3 or more.

[in] For this sequence, is measured self-splicing fitness (ln) -3 or higher? CUCCAGCAAUAUUACGCCCU
[out] condition not met

[in] Decide: self-splicing fitness (ln) of UUCUAGCAAUAUUACGCGUG >= -3?
[out] condition met

[in] Please check the record CUAAAGCAAUAUUACGUAAA and state if its self-splicing fitness (ln) is at or above -3.
[out] condition met

[in] Does the reported self-splicing fitness (ln) for UGAUAGCAAUAUUACGUUGU fall at or above the -3 mark?
[out] condition not met

[in] Dear colleague, could you confirm whether GGGUAGCAAUAUUACGUGAU has self-splicing fitness (ln) at or above -3?
[out] condition met

[in] Has UUGUAGCAAUAUUACGAUGA a recorded self-splicing fitness (ln) greater than or equal to -3?
[out] condition met

[in] Determine whether measured self-splicing fitness (ln) meets or exceeds -3 for AGGAAGCAAUAUUACGCGCA
[out] condition met

[in] For this sequence, is measured self-splicing fitness (ln) -3 or higher? ACCCAGCAAUAUUACGCGAA
[out] condition met

* * *

Assay: self-splicing fitness, log relative to wild type (ln ratio); higher = more splicing; Tetrahymena group I intron in knt gene, E. coli kanamycin selection, DiMSum; sequences stand for … in CUCUCU…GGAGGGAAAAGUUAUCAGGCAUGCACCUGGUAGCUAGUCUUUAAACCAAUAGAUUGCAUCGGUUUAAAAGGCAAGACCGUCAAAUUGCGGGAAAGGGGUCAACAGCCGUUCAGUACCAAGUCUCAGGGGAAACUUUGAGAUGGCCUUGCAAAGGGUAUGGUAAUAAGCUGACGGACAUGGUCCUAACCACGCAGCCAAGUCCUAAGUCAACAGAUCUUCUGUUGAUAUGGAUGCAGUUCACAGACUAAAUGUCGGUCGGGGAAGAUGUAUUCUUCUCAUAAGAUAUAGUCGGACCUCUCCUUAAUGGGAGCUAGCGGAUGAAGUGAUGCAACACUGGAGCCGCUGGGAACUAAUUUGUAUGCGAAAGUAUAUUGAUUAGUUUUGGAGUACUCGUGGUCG
Details: 37 °C
I'd appreciate it if you could supply self-splicing fitness (ln) values for the items below.
Lab note: jot down the number only; don't add units.

[in] Give the value of self-splicing fitness (ln) reported for the following: UGCUAGCAAUAUUACGUAUA
[out] -1.1

[in] Using the record for CCAAAGCAAUAUUACGAAGA , state its measured self-splicing fitness (ln).
[out] -2.2

[in] Respond only with self-splicing fitness (ln) recorded for AGCAAGCAAUAUUACGGUUG
[out] -1.32

[in] Give the value of self-splicing fitness (ln) reported for the following: UCUAAGCAAUAUUACGGAUU
[out] -2.31

[in] Give the reported self-splicing fitness (ln) for this sequence. GGAUAGCAAUAUUACGUAGU
[out] -1.67

[in] Determine its reported self-splicing fitness (ln): ACGAAGCAAUAUUACGAAGG
[out] -1.4

[in] Item GUUCAGCAAUAUUACGUGGU : provide self-splicing fitness (ln)
[out] -0.621

[in] Indicate its recorded self-splicing fitness (ln); the sequence in question is CUAAAGCAAUAUUACGCAUA
[out] -2.65

[in] Annotate the sequence GAUGAGCAAUAUUACGUCCA with its measured self-splicing fitness (ln).
[out] -2.26

[in] Note down self-splicing fitness (ln) recorded for UAAGAGCAAUAUUACGAAUA
[out] -1.32

[in] // fetch self-splicing fitness (ln) given entry AGAUAGCAAUAUUACGCUUU
[out] -1.2

[in] Quote self-splicing fitness (ln) reported for ACUGAGCAAUAUUACGAAAU please.
[out] -1.72

[in] Please indicate self-splicing fitness (ln) recorded for ACUAAGCAAUAUUACGCUGU
[out] -2.58

[in] State its self-splicing fitness (ln) for this sequence: CGCAAGCAAUAUUACGAACG
[out] -1.03

[in] State its self-splicing fitness (ln) for this sequence: CUGCAGCAAUAUUACGCCAC
[out] -2.82

[in] Respond only with self-splicing fitness (ln) recorded for GUAUAGCAAUAUUACGACGG
[out] -2.33

[in] Name the recorded self-splicing fitness (ln) of the item AAUUAGCAAUAUUACGGACU in your answer.
[out] 0.51

[in] State its self-splicing fitness (ln) for this sequence: UCCCAGCAAUAUUACGCCGA
[out] 0.659

[in] Identify measured self-splicing fitness (ln) corresponding to UGCGAGCAAUAUUACGGGGG
[out] -2.36

[in] For the sequence UAUCAGCAAUAUUACGUAAA , report self-splicing fitness (ln).
[out] 0.233

[in] Let me know recorded self-splicing fitness (ln) for CGCGAGCAAUAUUACGCACA , thanks.
[out] -1.16

[in] Answer with the recorded self-splicing fitness (ln) for the sequence listed here: GAAAAGCAAUAUUACGAGCG
[out] -0.579

[in] Supply reported self-splicing fitness (ln) belonging to this sequence: CGCGAGCAAUAUUACGUCUC
[out] -2.28

[in] Please list self-splicing fitness (ln) recorded for the sequence AUCCAGCAAUAUUACGCCGG
[out] -2.36

[in] Find the measured self-splicing fitness (ln) of CUAAAGCAAUAUUACGCAUG and report it.
[out] -0.193

[in] // Input: AUGUAGCAAUAUUACGGACC . Output its self-splicing fitness (ln) only.
[out] -0.411

[in] Give self-splicing fitness (ln) for the following sequence: AAUCAGCAAUAUUACGAACG
[out] -0.368

[in] Please report self-splicing fitness (ln) for the following sequence: CAGUAGCAAUAUUACGGGAC
[out] -3.56

[in] // fetch self-splicing fitness (ln) given entry AAGUAGCAAUAUUACGAAUA
[out] -2.29

[in] Answer with reported self-splicing fitness (ln) of GAUUAGCAAUAUUACGGCAG
[out] -1.84

[in] Give recorded self-splicing fitness (ln). AAAGAGCAAUAUUACGCGGC
[out] -3.08

[in] Return reported self-splicing fitness (ln). Input sequence: UACCAGCAAUAUUACGCACA
[out] 0.0379

[in] Given CGGUAGCAAUAUUACGCUUA , respond with its self-splicing fitness (ln).
[out] -1.95

[in] Determine from records and report self-splicing fitness (ln) for CGCGAGCAAUAUUACGAAGA
[out] -0.985

* * *

Assay: self-splicing fitness, log relative to wild type (ln ratio); higher = more splicing; Tetrahymena group I intron in knt gene, E. coli kanamycin selection, DiMSum; sequences stand for … in CUCUCU…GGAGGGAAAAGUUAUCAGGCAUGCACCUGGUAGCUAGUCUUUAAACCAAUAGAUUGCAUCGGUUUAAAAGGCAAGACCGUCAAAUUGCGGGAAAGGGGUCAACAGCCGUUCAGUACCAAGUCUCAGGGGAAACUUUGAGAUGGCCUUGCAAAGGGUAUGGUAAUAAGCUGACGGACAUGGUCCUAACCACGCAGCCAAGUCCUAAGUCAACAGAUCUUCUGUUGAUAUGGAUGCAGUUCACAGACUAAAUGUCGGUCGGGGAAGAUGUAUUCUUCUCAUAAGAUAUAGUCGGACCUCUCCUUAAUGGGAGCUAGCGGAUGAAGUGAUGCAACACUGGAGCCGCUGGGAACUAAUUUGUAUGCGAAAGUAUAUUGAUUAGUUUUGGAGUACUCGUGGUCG
Conditions: 37 °C
Categorized via self-splicing fitness (ln): low end = under -1, middle = from -1 up to -0.4, high end = -0.4 and over

[in] Bin this entry: GUCAAGCAAUAUUACGUCGC
[out] low end

[in] Note: place this sequence into its band. Item: GCAGAGCAAUAUUACGUAUG
[out] low end

[in] Quick check: band for CACCAGCAAUAUUACGCGCG
[out] high end

[in] Assign a bin to UGCGAGCAAUAUUACGACGA
[out] middle

[in] Textbook exercise: identify the category of the sequence given here, ACACAGCAAUAUUACGCUCA , according to its measured value.
[out] high end

[in] Consider CAAGAGCAAUAUUACGAAGG . To which self-splicing fitness (ln) class does it belong?
[out] middle

[in] Consider AGAUAGCAAUAUUACGCACG . To which self-splicing fitness (ln) class does it belong?
[out] high end

[in] Into which bin does this sequence go? GUGCAGCAAUAUUACGGGGG
[out] low end

[in] Hi there! Could you help me figure out the category for AUUGAGCAAUAUUACGAGAU please?
[out] low end

[in] Class label required: GAACAGCAAUAUUACGGCUA
[out] high end

[in] Textbook exercise: identify the category of the sequence given here, AGUCAGCAAUAUUACGCGCG , according to its measured value.
[out] high end

[in] Tag the class for AUCCAGCAAUAUUACGUUGC
[out] low end

[in] Category of CCGUAGCAAUAUUACGUAUU :
[out] low end

[in] The entry to classify is UCUCAGCAAUAUUACGUCGA ; which class holds it?
[out] middle

[in] Sort into band: UAUUAGCAAUAUUACGAGAG
[out] low end

[in] Given UUACAGCAAUAUUACGGAUG , name the class its self-splicing fitness (ln) places it in.
[out] high end
